Target Or System: human tissue factor (TF), membrane-bound on cells (human, UniProt P13726 33-295)
Protocol Description: cell-based or functional assay
Value Kind: EC50 of ADCC, MDA-MB-231 cells (nM)
Value expressed in nM; do not type the unit.

# count of solved cases: 2
Binder: anti-TF HuMab 013 (antibody, V domains shown, Human monoclonal antibody from HuMab mice; also called HuMab-TF-13) VH: EVQLVQSGAEVKKPGESLKISCKGSGYSFTSYWIGWVRQMPGKGLEWMGIIYPGDSDTRYSPSFQGQVTISADKSISTAYLQWSSLKASDTAMYYCARIHRGAGYSSSWPGAFDIWGQGTMVTVSS VL: DIQMTQSPSSLSASVGDRVTITCRASQGISRWLAWYQQKPEKAPKSLIYAASSLQSGVPSRFSGSGSGTDFTLTISSLQPEDFATYYCQQYDSDPITFGQGTRLEIK
Unit Text: nM
EC50 of ADCC, MDA-MB-231 cells: 0.06

Binder: anti-TF HuMab 044 (antibody, V domains shown, Human monoclonal antibody from HuMab mice) VH: QVQLVESGGGVVQPGRSLRLSCAASGFTFSDYAMHWVRQAPGKGLEWVAVIPYDGDNKYYADSVKGRFTISRDNSKNTLYLQMNSLRAEDTAVYYCAREDWGLEVDYWGQGALVTVSS VL: AIQLTQSPSSLSASVGDRVTITCRASQGINSALAWYQQKPGKAPKLLIYDASSLESGVPSRFSGSGSGTDFTLTISSLQPEDFATYYCQQFNSYPLTFGGGTKVEIK
Unit Text: nM
EC50 of ADCC, MDA-MB-231 cells: 0.08

With those in mind, consider the next binder.
Short answer for anti-TF HuMab 101 (antibody, V domains shown, Human monoclonal antibody from HuMab mice) VH: EVQLLESGGGLVQPGGSLRLSCAASGFTFSNYAMSWVRQAPAKGLDWVSGISGSGVTTYYADSVKGRFTISRDNSKDTLYLQMNSLRAEDTAVYFCAKTPWGYYFDYWGQGILVAVSS VL: DIQMTQSPSSLSASVGDRVTITCRASQGISSWLAWYQQKPEKAPKSLIYAASSLQSGVPSRFSGSGSGTDFTLTISSLQPEDFATYYCQQYNSYPLYTFGQGTKLEIK : EC50 of ADCC, MDA-MB-231 cells was 0.1
